- ASSAY NAME: chemical genetic growth profiling, strain panel (AID 1159580);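 further: tested at 20 µM; growth read once vehicle control cultures reached saturation at 30 °C; 1 = growth at the plate median or of vehicle wells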
- SETTINGS: S. cerevisiae deletion strains, growth OD, locus YHR087W, strain rtc3, stronger effect = lower value
The whole screen tested about 5,500 compounds, of which about 2,000 (36%) were called active. About 18% were inconclusive and are not listed. The list shows a part of the results.
normalized growth by entry:
Number only, please.

# STRUCTURE STRING, normalized growth
measured = [
    ("Cc1c(Br)sc2ccc(Cl)cc12", 0.963),
    ("CCCc1nc(-c2ccccn2)[nH]c(=O)c1CC1CC1", 0.754),
    ("O=C(O)CSCC(=O)NC1CCN(Cc2ccccc2)CC1", 0.994),
    ("Nc1ccccc1C(=O)N/N=C\\c1cccc2ccccc12", 0.992),
]

response.value for Cc1csc2ccc(Cl)cc12 (field: normalized growth) = 0.999

Per the records, this compound ( O=[N+]([O-])c1ccc(S(=O)(=O)c2ccc(Cl)cc2)cc1O ) has normalized growth equal to 0.692

For record O=C(N/N=C\c1c(O)ccc2ccccc12)N/N=C\c1c(O)ccc2ccccc12 the listed normalized growth is 0.989

====

- ASSAY NAME: chemical genetic growth profiling, strain panel (AID 1159580)
- SETTINGS: S. cerevisiae deletion strains, growth OD, locus YPL209C, strain IPL1
Out of some 5,500 compounds screened, about 2,000 (36%) were called active. Inconclusive results (about 18%) are left out. Rule as the data show it: active = normalized growth mostly below about 0.91 (no sharp cut-off); inconclusive = no clear call, values can overlap the other calls; inactive = mostly above about 0.92. The list shows a part of the results.
Respond using exactly one of the listed classes: yes (active), no (inactive)

Would you mind telling me which call this test gave O=C(NCC(c1ccccc1)c1c[nH]c2ccccc12)c1ccc(C(F)(F)F)cc1 (configuration not stated) ?
no

Could you check what this test reported for O=S(=O)(c1ccc(Cl)cc1)N(Cc1cccnc1)Cc1ccc(Cl)cc1Cl ?
no

Write down the call the test reported for this compound. Item: Cc1nc(-c2ccccn2)nc(N(C)Cc2ccccc2)c1Cl
no

Please let me know the test result on file for O=C(c1ccc(Cl)cc1)N(Cc1ccccc1)Cc1cccnc1 .
no

// outcome(item) with item = Cc1csc(NC(=O)Nc2ccc(C(F)(F)F)cc2)c1Cl
no

Tell me the assay call for O=C(NCCNc1ncc(C(F)(F)F)cc1Cl)C(F)(F)Sc1ccccc1 please.
no

Lab log entry: Cc1ccc(S(=O)(=O)n2c(Sc3ccc([N+](=O)[O-])cc3[N+](=O)[O-])nc3cc(C)ccc32)cc1 — outcome as called in the assay?
no

Which outcome was entered for the compound COc1cccc(NC(=S)NC2CC(C)CC(C)(C)C2)c1 (configuration not stated) in this test?
no

// return assay outcome for Cc1nc(-c2ccccn2)nc(SCc2ccccc2)c1Cl
no

# fetch the recorded call for N#Cc1c2ccccc2nc2ccccc12 here
yes

For Brc1ccc2[nH]c3c(c2c1)CCC3 , which call appears in the assay record?
no

Identify the outcome logged in this assay for the compound shown: CC(C)Cc1ccc(C(C)C(=O)Nc2nn(C)c3ccccc23)cc1 (configuration not stated)
no

====

- ASSAY NAME: chemical genetic growth profiling, strain panel (AID 1159580)
- SETTINGS: S. cerevisiae deletion strains, growth OD, locus YKR001C, strain vps1, stronger effect = lower value
The whole screen tested about 5,500 compounds, of which about 2,000 (36%) were called active. Another 18% or so got no clear call; they are omitted. The list shows a part of the results. Where a SMILES comes first, the peptide text is derived from it. The star is where a group is joined. For = O=C*
Form field: normalized growth (one value per entry).
Response field accepts a number only; no unit should be typed.

A selection of reference data follows.
# COMPOUND, normalized growth
rows = [
    ("Cc1cc(O)ccc1Cl", 0.937),
    ("NC12CC3CC(CC(C3)C1)C2", 1.01),
    ("Cc1cc(O)cc(=O)o1", 0.983),
    ("C/C=C(/C)C(=O)O[C@H]1CC[C@@]2(C)[C@@H]3CC[C@H]4[C@]5(O)C[C@H](O)[C@@]6(O)[C@@H](CN7C[C@@H](C)CC[C@H]7[C@@]6(C)O)[C@]5(O)C[C@@]42O[C@]13O", 0.965),
    ("CSCCC(NC=O)C(=O)NC(Cc1ccccc1)C(=O)O (stereo not drawn) (For-Met-Phe-OH; configuration not given here)", 1.02),
]

Kindly consider the entry below.
Lab book: normalized growth of Cc1cc(O)cc(C)c1Cl noted as 0.846

====

Reported normalized growth values for a set of compounds
- ASSAY NAME: chemical genetic growth profiling, strain panel (AID 1159580);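 further: tested at 20 µM; growth read once vehicle control cultures reached saturation at 30 °C; 1 = growth at the plate median or of vehicle wells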
- SETTINGS: S. cerevisiae deletion strains, growth OD, locus YCL069W, strain vba3, stronger effect = lower value
About 2,000 (36%) of roughly 5,500 compounds were called active. About 18% were inconclusive and are not listed. This is one part of the list.
The answer should be a number; do not append a unit.

# COMPOUND, VALUE REPORTED
measured = [
    ("O=C1C(O)=C(O)C(=O)C(O)=C1O", 1.03),
    ("O=C(Nc1ccc(C(=O)O)c(O)c1)c1ccccc1", 0.987),
    ("COC(=O)Nc1nc2ccc(S(=O)c3ccccc3)cc2[nH]1 (stereo not given)", 0.988),
    ("COC1=C[C@@H]2[C@@H]3Cc4ccc(OC)c(O)c4[C@]2(CCN3C)CC1=O", 1.01),
    ("Nc1ccc(S(=O)(=O)Nc2cnc3ccccc3n2)cc1", 1.02),
    ("CO[C@@]12[C@@H]3NC3CN1C1=C(C(=O)C(N)=C(C)C1=O)[C@@H]2COC(N)=O (stereo not given in full)", 0.984),
    ("O=c1[nH]cc(F)c(=O)[nH]1", 0.484),
    ("COC(=O)Nc1nc2ccc(Sc3ccccc3)cc2[nH]1", 0.99),
]

Recorded normalized growth (compound FC(F)(F)c1ccccc1-n1ccnc1 ): 0.999

Measured normalized growth of CC1OC(=O)C(C(C)C)NC(=O)C(C(C)C)OC(=O)C(C(C)C)NC(=O)C(C)OC(=O)C(C(C)C)NC(=O)C(C(C)C)OC(=O)C(C(C)C)NC(=O)C(C)OC(=O)C(C(C)C)NC(=O)C(C(C)C)OC(=O)C(C(C)C)NC1=O (stereo not given) : 0.51

====

- ASSAY NAME: chemical genetic growth profiling, strain panel (AID 1159580);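 further: tested at 20 µM; growth read once vehicle control cultures reached saturation at 30 °C; 1 = growth at the plate median or of vehicle wells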
- SETTINGS: S. cerevisiae deletion strains, growth OD, locus YDR052C, strain DBF4, stronger effect = lower value
Out of some 5,500 compounds screened, about 2,000 (36%) were called active. Roughly 18% stayed inconclusive and do not appear here. Some of the results follow.
MEASURED PARAMETER: normalized growth
Provide a numeric answer; units are not to be included.

Illustrative cases are given below, each with its answer.
# COMPOUND, normalized growth
measured = [
    ("Cc1ccc(C)c(CSc2nc(C3CCCCC3)c(C#N)c(=O)[nH]2)c1", 0.968),
    ("Cc1nc(-c2ccccn2)nc(N(C)Cc2ccccc2)c1Cl", 0.965),
    ("O=C(NCCNc1ncc(C(F)(F)F)cc1Cl)C(F)(F)Sc1ccccc1", 0.986),
    ("S=C(NNC(=S)NC1CC2C=CC1C2)Nc1ccc(Br)c(Cl)c1 (stereo unspecified)", 0.994),
    ("O=C(CSCc1csc2ccccc12)Nc1ccc(F)c(Cl)c1", 0.99),
]

The recorded normalized growth for O=C(c1ccc(Cl)cc1)N(Cc1ccccc1)Cc1cccnc1 is 0.985

GET /value?item= Clc1cc(Cl)cc(-c2nc(SCc3ccc(Cl)cc3Cl)n[nH]2)c1 &field=normalized growth returns 0.998

====

- ASSAY NAME: chemical genetic growth profiling, strain panel (AID 1159580);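 further: tested at 20 µM; growth read once vehicle control cultures reached saturation at 30 °C; 1 = growth at the plate median or of vehicle wells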
- SETTINGS: S. cerevisiae deletion strains, growth OD, locus YML124C, strain tub3
The campaign covered roughly 5,500 compounds. About 2,000 (36%) were called active. Inconclusive results (about 18%) are left out. No stated cut-off is given here; in the data, active means normalized growth mostly below about 0.91 (no sharp cut-off); inconclusive means no clear call, values can overlap the other calls; inactive means mostly above about 0.92. This is one part of the list. Where a SMILES comes first, the peptide text is derived from it. Bridges are numbered along the chain shown (N, C = ends). [ ]: non-standard residue; d: D form. The star is where a group is joined. ξ: configuration not given here. ξDab(CH2SO3H) = NC(CCNCS(=O)(=O)O)C(=O)O; Heptanoyl(6-Me) = CC(C)CCCCC(=O)*; Dab = NCC[CH](N)C(=O)O; For = O=C*
API: response.call in active, inactive

For Cc1cn([C@H]2C[C@H](N=[N+]=[N-])[C@@H](CO)O2)c(=O)[nH]c1=O , which call appears in the assay record?
inactive

Write down the call the test reported for this compound. Item: CO[C@@]12[C@@H]3NC3CN1C1=C(C(=O)C(N)=C(C)C1=O)[C@@H]2COC(N)=O (stereo partly specified)
inactive

What did this assay record as the result for OC(CCN1CCCC1)(c1ccccc1)C1CCCCC1 (stereo unspecified) ?
inactive

Identify the outcome logged in this assay for the compound shown: CSCCC(NC=O)C(=O)NC(Cc1ccccc1)C(=O)O (stereo not drawn) (For-Met-Phe-OH; configuration not given here)
inactive

Hello, I am checking results. What call was entered for Cc1cc(O)c2c(c1)Cc1cccc(O)c1C2=O ?
inactive

What call does the record list for COC(=O)Nc1nc2ccc(Sc3ccccc3)cc2[nH]1 ?
active

I would be grateful if you could indicate the recorded call for CCC(C)C1NC(=O)C(CCNCS(=O)(=O)O)NC(=O)C(NC(=O)C(CCNCS(=O)(=O)O)NC(=O)C(NC(=O)C(CCNCS(=O)(=O)O)NC(=O)CCCCC(C)C)C(C)O)CCNC(=O)C(C(C)O)NC(=O)C(CCNCS(=O)(=O)O)NC(=O)C(CCNCS(=O)(=O)O)NC(=O)C(C(C)CC)NC1=O (stereo unspecified) ({Heptanoyl(6-Me)}-[ξDab(CH2SO3H)]T[ξDab(CH2SO3H)][Dab][ξDab(CH2SO3H)]II[ξDab(CH2SO3H)][ξDab(CH2SO3H)]T; lactam 4-C; configuration not given here) .
inactive

What did this assay record as the result for O=c1cc(CO)occ1O ?
inactive

What did this assay record as the result for C/C=C(/C)C(=O)OC1CCC2(C)C3CCC4C5(O)CC(O)C6(O)C(CN7CC(C)CCC7C6(C)O)C5(O)CC42OC13O (stereo unspecified) ?
inactive

// param item: CC(=O)Nc1ccc(OCC(O)CNC(C)C)cc1 (stereo unspecified) ; yields the recorded call
inactive

Entry O=C(O)/C=C1\CCCc2ccccc2C1O (stereo unspecified) : call = ?
inactive

Short answer needed: outcome of this test for C#C[C@]1(O)CCC2C3CCC4=CC(=O)CC[C@@H]4C3CC[C@@]21CC (stereo partly specified) ?
inactive

Per the records of this test, what outcome belongs to COc1cc(C(=O)O[C@H]2CC[C@@]3(C)[C@@H]4CC[C@H]5[C@]6(O)C[C@H](O)[C@@]7(O)[C@@H](CN8C[C@@H](C)CC[C@H]8[C@@]7(C)O)[C@]6(O)C[C@@]53O[C@]24O)cc(OC)c1OC ?
inactive

Please indicate how the test categorized O=c1oc2cc(O)ccc2s1 .
inactive

Hey, what did the test say about C#C[C@]1(OC(C)=O)CCC2C3CCC4=CC(=O)CC[C@@H]4C3CC[C@@]21C (stereo partly specified) ?
inactive

Hello, I am checking results. What call was entered for CC1C(=O)OC2C1CCC1(C)C=CC(=O)C3(C)OC213 (stereo unspecified) ?
inactive

Record lookup: outcome of this test for Cc1cc(O)cc(=O)o1 ?
inactive

Check the results log: what was the call for N[C@H](C(=O)O)[C@@H]1CC(Cl)=NO1 ?
active

Dear all, I need the recorded test outcome for Cc1cc(O)cc(O)c1C(=O)O , thank you.
inactive

Hi team, can someone confirm the assay call for Nc1c2c(nc3ccccc13)CCCC2O (stereo unspecified) ?
inactive
